Reported Ki values are given for each entry in this list.
System name: LHRH rat pituitary receptor (Rattus norvegicus, UniProt P30969)
Construct: from tissue; host or cells: rat pituitary
Sequence (P30969 whole entry): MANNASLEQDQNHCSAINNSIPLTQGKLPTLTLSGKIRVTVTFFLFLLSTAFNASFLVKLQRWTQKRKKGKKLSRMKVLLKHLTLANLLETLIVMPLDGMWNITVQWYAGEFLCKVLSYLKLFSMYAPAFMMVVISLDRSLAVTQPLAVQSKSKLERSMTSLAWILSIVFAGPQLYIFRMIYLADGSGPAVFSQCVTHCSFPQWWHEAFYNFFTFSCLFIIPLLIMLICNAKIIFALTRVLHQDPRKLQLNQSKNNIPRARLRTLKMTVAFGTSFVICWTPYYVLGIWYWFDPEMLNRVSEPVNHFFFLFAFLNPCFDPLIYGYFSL
Method summary: LHRH rat pituitary receptor binding (pKI)
Test conditions: negative logarithm of the equilibrium dissociation constants, Table 1, read-out: receptor binding affinity (pKI) (converted)
Readout label: Ki

* CC[C@H]1OC(=O)[C@H](C)[C@@H](O[C@H]2C[C@@](C)(OC)[C@@H](O)[C@H](C)O2)[C@H](C)[C@@H](O[C@@H]2O[C@H](C)C[C@H](N(C)C(C)C)[C@H]2O)[C@](C)(OC)C[C@@H](C)C(=O)[C@H](C)[C@H]2N(CC3(c4ccc(Cl)c(Cl)c4)CC3)C(=O)O[C@]12C | 1.74 nM
* CC[C@H]1OC(=O)[C@H](C)[C@@H](O[C@H]2C[C@@](C)(OC)[C@@H](O)[C@H](C)O2)[C@H](C)[C@@H](O[C@@H]2O[C@H](C)C[C@H](N(C)C(C)CCc3ccc(O)cc3)[C@H]2O)[C@](C)(OC)C[C@@H](C)C(=O)[C@H](C)[C@H]2N(CCc3ccc(F)c(Cl)c3)C(=O)O[C@]12C (stereo partly shown) | 1.78 nM
* CC[C@H]1OC(=O)[C@H](C)[C@@H](O[C@H]2C[C@@](C)(OC)[C@@H](O)[C@H](C)O2)[C@H](C)[C@@H](O[C@@H]2O[C@H](C)C[C@H](N(C)CC3CC3)[C@H]2O)[C@](C)(OC)C[C@@H](C)C(=O)[C@H](C)[C@H]2N(CCc3ccc(Cl)c(Cl)c3)C(=O)O[C@]12C | 7.24 nM
* CC[C@H]1OC(=O)[C@H](C)[C@@H](O[C@H]2C[C@@](C)(OC)[C@@H](O)[C@H](C)O2)[C@H](C)[C@@H](O[C@@H]2O[C@H](C)C[C@H](N(C)CCc3ccccn3)[C@H]2O)[C@](C)(OC)C[C@@H](C)C(=O)[C@H](C)[C@H]2N(CCc3ccc(Cl)c(Cl)c3)C(=O)O[C@]12C | 4.17 nM
* CC[C@H]1OC(=O)[C@H](C)[C@@H](O[C@H]2C[C@@](C)(OC)[C@@H](O)[C@H](C)O2)[C@H](C)[C@@H](O[C@@H]2O[C@H](C)C[C@H](N(C)C3CCC3)[C@H]2O)[C@](C)(OC)C[C@@H](C)C(=O)[C@H](C)[C@H]2N(CCc3ccc(F)c(F)c3)C(=O)O[C@]12C | 0.513 nM
* CC[C@H]1OC(=O)[C@H](C)[C@@H](O[C@H]2C[C@@](C)(OC)[C@@H](O)[C@H](C)O2)[C@H](C)[C@@H](O[C@@H]2O[C@H](C)C[C@H](N(C)CCC[S+](C)[O-])[C@H]2O)[C@](C)(OC)C[C@@H](C)C(=O)[C@H](C)[C@H]2N(CCc3ccc(Cl)c(Cl)c3)C(=O)O[C@]12C (stereo partly shown) | 1.78 nM
* CCNC(=S)N(C)[C@H]1C[C@@H](C)O[C@@H](O[C@@H]2[C@@H](C)[C@H](O[C@H]3C[C@@](C)(OC)[C@@H](O)[C@H](C)O3)[C@@H](C)C(=O)O[C@H](CC)[C@@]3(C)OC(=O)N(CCc4ccc(Cl)c(Cl)c4)[C@@H]3[C@@H](C)C(=O)[C@H](C)C[C@@]2(C)OC)[C@@H]1O | 9.12 nM
* CC[C@H]1OC(=O)[C@H](C)[C@@H](O[C@H]2C[C@@](C)(OC)[C@@H](O)[C@H](C)O2)[C@H](C)[C@@H](O[C@@H]2O[C@H](C)C[C@H](N(C)CCCSC)[C@H]2O)[C@](C)(OC)C[C@@H](C)C(=O)[C@H](C)[C@H]2N(CCc3ccc(Cl)c(Cl)c3)C(=O)O[C@]12C | 4.68 nM
* CC[C@H]1OC(=O)[C@H](C)[C@@H](O[C@H]2C[C@@](C)(OC)[C@@H](O)[C@H](C)O2)[C@H](C)[C@@H](O[C@@H]2O[C@H](C)C[C@H](N(C)CCc3ccccn3)[C@H]2O)[C@](C)(OC)C[C@@H](C)C(=O)[C@H](C)[C@H]2N(CCc3ccc(F)c(Cl)c3)C(=O)O[C@]12C | 4.07 nM
* CCC(CC)N(C)[C@H]1C[C@@H](C)O[C@@H](O[C@@H]2[C@@H](C)[C@H](O[C@H]3C[C@@](C)(OC)[C@@H](O)[C@H](C)O3)[C@@H](C)C(=O)O[C@H](CC)[C@@]3(C)OC(=O)N(CCc4ccc(Cl)cc4)[C@@H]3[C@@H](C)C(=O)[C@H](C)C[C@@]2(C)OC)[C@@H]1O | 9.12 nM
* CC[C@H]1OC(=O)[C@H](C)[C@@H](O[C@H]2C[C@@](C)(OC)[C@@H](O)[C@H](C)O2)[C@H](C)[C@@H](O[C@@H]2O[C@H](C)C[C@H](N(C)Cc3cccnc3)[C@H]2O)[C@](C)(OC)C[C@@H](C)C(=O)[C@H](C)[C@H]2N(CCc3ccc(Cl)c(Cl)c3)C(=O)O[C@]12C | 6.92 nM
* CC[C@H]1OC(=O)[C@H](C)[C@@H](O[C@H]2C[C@@](C)(OC)[C@@H](O)[C@H](C)O2)[C@H](C)[C@@H](O[C@@H]2O[C@H](C)C[C@H](N(C)C3CCCC3)[C@H]2O)[C@](C)(OC)C[C@@H](C)C(=O)[C@H](C)[C@H]2N(CCNc3ccc(Cl)cc3)C(=O)O[C@]12C | 2.69 nM
* CC[C@H]1OC(=O)[C@H](C)[C@@H](O[C@H]2C[C@@](C)(OC)[C@@H](O)[C@H](C)O2)[C@H](C)[C@@H](O[C@@H]2O[C@H](C)C[C@H](N(C)CCCc3cccnc3)[C@H]2O)[C@](C)(OC)C[C@@H](C)C(=O)[C@H](C)[C@H]2N(CCc3ccc(F)c(Cl)c3)C(=O)O[C@]12C | 3.98 nM
